- Tested on: MOLT-4
- Assay remarks: NCI tumour cell line growth inhibition, 48 h
Active and inactive are the calls of the source. Rule as the data show it: active = GI50 up to about 1.1 µM and inactive = higher.
Measurement type: GI50

Answered cases to consult:
NNC(=O)Cc1cccnc1 :: > 100 µM (inactive)
COc1cc2c3c(c1OC)-c1cc4c(cc1CC3(C#N)N(C(=O)c1ccccc1)CC2)OCO4 (configuration not stated) :: 68.4 µM (inactive)
C/C(=C\C(C)COCc1ccccc1)[C@H](COCc1ccccc1)OCc1ccccc1 (some centres not stated) :: 46.9 µM (inactive)
C[C@]12CC[C@H]3[C@@H](CCC4=CC(=O)CC[C@@H]43)[C@@H]1CC[C@@H]2OC1(O)C(=O)c2ccccc2C1=O :: 33.3 µM (inactive)
N#Cc1nc(CCN2C(=O)c3ccccc3C2=O)oc1N :: > 100 µM (inactive)

Continue with the compound presented below.
Sample COC(=O)C12OCC34C(CC5C(C)=C(O)C(=O)CC5(C)C3C(O)C1O)OC(=O)C(OC(=O)C=C(C)C)C24 (configuration not stated) ; GI50 observed: 297 µM (inactive)

###

- System: EKVX
- Assay remarks: NCI tumour cell line growth inhibition, 48 h
Calls of active or inactive are those of the source. Rule as the data show it: active = GI50 up to about 1.1 µM and inactive = higher.
// one of Yes = active, No = inactive, no free text

Previously resolved entries follow.
N/C(=N\O)N/N=C/c1cc(Br)cc(Br)c1O :: No
O=C1C(c2ccccc2)=C(c2ccccc2)C(c2ccc(CCCCCCc3ccc(C4=C(c5ccccc5)C(=O)C(c5ccccc5)=C4c4ccccc4)cc3)cc2)=C1c1ccccc1 :: No
O=C1CC(O)c2c1csc2Br (centres undefined) :: No

Name the outcome recorded for O=C(O)c1ccccc1Sc1ccc(C=C2NC(=S)N(c3ccccc3)C2=O)s1 in the assay.
No

Outcome logged for CN(C(=O)C12C3C4C1C1C2C3C41C(=O)O)C(C)(C)C (centres undefined) in this assay:
No

What classification did COCOC1/C=C/CCCCC(=O)C(C)C#CC1 (centres undefined) end up with in this test?
No

Give the logged outcome of this assay for the following compound: O=C(c1cccc(C(=O)c2ccc3c4c(cccc24)C(=O)N(c2ccccc2)C3=O)c1)c1ccc2c3c(cccc13)C(=O)N(c1ccccc1)C2=O
No

Record lookup: outcome of this test for COc1cc(/C=C/C(=N\NC(=S)NN)c2sc(NNC(C)=O)nc2C)ccc1O ?
No

Field: outcome | Entry: N#C/N=C1\NC(Cc2ccccc2)C(=O)N1CCc1c[nH]c2ccccc12 (centres undefined)
No

Answer briefly: the call reported for C=C(Cl)/C(=C/Cl)CCC(Br)C(C)(C)Cl.C=C(Cl)/C(=C\Cl)CCC(Br)C(C)(C)Cl (centres undefined) in this assay.
No

Entry O=C1c2c(Br)sc(Br)c2[C@H]2OC(=S)N[C@@H]12 : call = ?
No

###

- Test system: EKVX
- Assay remarks: NCI tumour cell line growth inhibition, 48 h
Active and inactive are the calls of the source. No stated cut-off is given here; in the data, active = GI50 up to about 1.1 µM and inactive = higher.
Measurement type: GI50

See these solved cases before continuing.
Clc1ccccc1-c1nc2cc(C34CC5CC(CC(C5)C3)C4)ccc2[nH]1 :: 29.1 µM (inactive)
C=CCC1(C#N)C(=S)NC2=C(C(=O)CC(C)(C)C2)C1c1ccccc1 (centres undefined) :: 19.2 µM (inactive)
Cc1cc(C)nc(NS(=O)(=O)c2ccc(NC(=O)c3cccc4c(Nc5ccc(S(=O)(=O)N=C(N)N)cc5)c5ccc(Cl)cc5nc34)cc2)n1 :: 30.8 µM (inactive)
C/C(=C\C(C)COCc1ccccc1)[C@H](COCc1ccccc1)OCc1ccccc1 (some centres undefined) :: > 100 µM (inactive)
O=C1c2ccccc2-c2ccccc2C(=O)C1(Br)Br :: 14.6 µM (inactive)

Recorded GI50 (molecule C=C(CCOC)CCC1CCCCC(CN(C)C)C1=O (centres undefined) ): > 100 µM (inactive)

Reported GI50 for CCOC(=O)c1c(NC(=O)c2ccc(OC)cc2)sc2c1CCCC2 was > 100 µM (inactive)

Memo: O=C(O)CNc1ccc(Cl)c(Cl)c1 , reported GI50: 23.1 µM (inactive)

Input O=C(O)CSCC(=O)c1ccccc1 . Output GI50: > 100 µM (inactive)

So, Cc1cc(NS(=O)(=O)c2ccc(NC(NC(=O)C(C(F)(F)F)C(F)(F)F)(C(F)(F)F)C(F)(F)F)cc2)no1 ? Its GI50 was > 100 µM (inactive)

###

- Tested on: MDA-N
- Assay remarks: NCI tumour cell line growth inhibition, 48 h
The source made the active and inactive calls. Rule as the data show it: active = GI50 up to about 1.1 µM and inactive = higher.
API: response.call in 1 (yes) for active, 0 (no) for inactive

A selection of reference data follows.
NC(=O)NCCSC1CCCCC1O (stereo unspecified) :: 0 (no)
COc1ccc(/C(=N/O)c2ccccc2-c2nc3ccccc3c(=O)n2-c2ccc(S(=O)(=O)Nc3ncccn3)cc2)cc1C :: 0 (no)
O=C(OCC(OC(=O)c1ccccc1)C1CC(C2(O)CCCCC2)C(=O)O1)c1ccccc1 (stereo unspecified) :: 0 (no)
COc1cc(/C=C/C(=N\NC(=S)NN)c2sc(NNC(C)=O)nc2C)ccc1O :: 0 (no)
Cc1cc(=O)n2nc(CSc3nnc(N)s3)sc2n1 :: 0 (no)

Per the assay record, what outcome was assigned to COC1CCC(O)C(/C=C/[N+](=O)[O-])C1 (stereo unspecified) ?
0 (no)

What is the recorded call for this compound in the test? C=C(CN(CC)CC)C1(c2ccccc2)CC2(CCCC2)C(=O)O1 (stereo unspecified)
0 (no)

Name the outcome recorded for CCCNC(=S)N/C=C1/C(=O)C=C(C)OC1=O in the assay.
0 (no)

Hey, what did the test say about C=C(CCC=C(C)C)C1CC=C(C)CC1 (stereo unspecified) ?
0 (no)

###

Entries and their GI50 values follow.
- System: MDA-N
- Assay remarks: NCI tumour cell line growth inhibition, 48 h
Calls of active or inactive are those of the source. Rule as the data show it: active = GI50 up to about 1.1 µM and inactive = higher.

C[C@@H]1CC[C@@H]2[C@@H](C1)O[C@@H]([C@@H](C)OCc1ccccc1)SC2(C)C :: 18.4 µM (inactive)
Cc1c(C)c2c(c(N)c1C#N)C(=O)N(CCc1ccccc1)C2=O :: > 100 µM (inactive)
N#Cc1nc(CCN2C(=O)c3ccccc3C2=O)oc1N :: > 100 µM (inactive)

# lookup: O=c1cc(CBr)c2ccc(O)cc2o1 on MDA-N, GI50 = 98.9 µM (inactive)

Known value: MDA-N GI50 of the molecule CC(C)(C)C(=O)CC1(O)C=C(O)C(O)(CC(=O)C(C)(C)C)O1 (stereo unspecified) equals 43.2 µM (inactive)

CC(C)(C)NC1=NC(C(F)(F)F)(C(F)(F)F)NC(=O)N1 on MDA-N gives GI50 = 49.2 µM (inactive)

I looked up Cc1c(Cl)ccc2c1NC(=O)C2(O)CC(=O)c1ccc(Cl)cc1Cl (stereo unspecified) and its GI50 for MDA-N was > 50 µM (inactive)

Value (GI50, MDA-N) for record CSC1=N/C(=C\c2ccc(Cl)cc2)C(=O)N1CN1CCCCC1 = 56.8 µM (inactive)

Tested on MDA-N, the item COc1ccc(-c2c(C(C)=O)c(-c3ccccc3)n(C3OC(COC(C)=O)C(OC(C)=O)C(OC(C)=O)C3OC(C)=O)c(=S)c2C#N)cc1 (stereo unspecified) showed GI50 equal to > 100 µM (inactive)

###

- System: MDA-MB-231
- Assay remarks: NCI tumour cell line growth inhibition, 48 h
Calls of active or inactive are those of the source. Rule as the data show it: active = GI50 up to about 1.1 µM and inactive = higher.
Classes to choose from: active, inactive

Solved cases below.
COC(=O)/C=C(\CC(=O)OC)n1nnnc1[C@@H]1C[C@H](COC(c2ccccc2)(c2ccccc2)c2ccccc2)[C@H]2OC(C)(C)O[C@H]21 :: inactive
CC(NC(=O)/C(=C/c1ccccc1O)NC(=O)c1ccccc1)C(=O)O (stereo not given) :: inactive
CC1(c2cccc(C3CCC4(C=CC3=O)OCCO4)c2)OCCO1 (stereo not given) :: inactive
CCc1c2c(nc3ccc(O)cc13)-c1cc3c(c(=O)n1C2)COC(=O)[C@]3(O)CC [7-ETHYL-10-HYDROXYCAMPTOTHECIN] :: active

Pending molecule:
So what was the verdict on C=C(CCC=C(C)C)C1CC=C(C)CC1 (stereo not given) in this test?
inactive

###

- Test system: RPMI-8226
- Assay remarks: NCI tumour cell line growth inhibition, 48 h
Calls of active or inactive are those of the source. No stated cut-off is given here; in the data, active = GI50 up to about 1.1 µM and inactive = higher.
Respond with a class label; see 1 for active, 0 for inactive

Worked examples, 3 molecules total:
NS(=O)(=O)c1cc(S(N)(=O)=O)c(NC(=O)N(c2ccccc2)c2ccccc2)c(Cl)c1Cl :: 0
COc1ccc(CNc2cc(=O)n(C)c(=O)[nH]2)cc1 :: 0
O=c1[nH]c(=O)n(COCc2ccccc2)c2ccsc12 :: 0

Hey, what did the test say about COc1ccc(CC(N)=O)cc1OC ?
0

For this molecule, state the assay outcome: O=C1OC2(OC2c2ccccc2)c2ccccc21 (stereo not given)
0

Hi, sorry to bother you, what did the test record for NC(=O)c1csc(C2(O)COC(CO)C2O)n1 (stereo not given) ?
0

// return assay outcome for COC(=O)C(=O)C(/C(=N/N)C(=O)Nc1ccccc1C(N)=O)c1nc2ccc([N+](=O)[O-])cc2nc1O (stereo not given)
0

Which outcome did this test record for the molecule Cc1c(C(=O)CC(=O)C(=O)Nc2ccc(Cl)cc2)[n+]([O-])c2ccccc2[n+]1[O-] ?
0

Dear all, I need the recorded test outcome for CCCCC1Cc2cc(OC)ccc2-c2n1c1cc(OC)ccc1[n+]2C.CCCCC1Cc2cc(OC)ccc2-c2n1c1ccc(OC)cc1[n+]2C (stereo not given) , thank you.
1

GET /call?item= COc1ccc(/C(=N/O)c2ccccc2-c2nc3ccccc3c(=O)n2-c2ccc(S(=O)(=O)Nc3ncccn3)cc2)cc1C returns the recorded outcome of this test.
0

All figures here come from ChEMBL document CHEMBL1201862.
